All values here come from patent EP1373238B1.

- System: late third instar of Spodoptera litura
- experimentalDetails: Antifeedant activity, painted leaf disks of Ricinus cummunis
- Type: in vivo
- conditionContext: 25 µg/sq.cm., 12 hr
measure: Percent leaf consumption 12 hr (%)
Field: numeric (%). Do not append units.

(Q) Please list Percent leaf consumption 12 hr recorded for the compound S=C(OCC1CCCO1)SCSC(=S)OCC1CCCO1 (stereo not shown) [Compound 1]
(A) 31.5

(Q) Tell us which Percent leaf consumption 12 hr value is on record for CCCCOC(=S)SCSC(=S)OCCCC [Compound 5, Methylene Bis (n-butytxanthate)]
(A) 3.5

(Q) Look up Percent leaf consumption 12 hr of CCCCOC(=S)SCc1ccc(CSC(=S)OCCCC)cc1 [Compound 12, p-Xylene Bis (n-butylcanthate)] and report it.
(A) 20.5

(Q) Supply Percent leaf consumption 12 hr value. Item: CC(C)COC(=S)SCc1cccc(F)c1 [Compound 3, m-Fluorobenzyl (isobutylxanthate)]
(A) 12.5

====

- System: late third instar of Spodoptera litura
- experimentalDetails: Antifeedant activity, painted leaf disks of Ricinus cummunis
- Format: in vivo
- conditionContext: oral feeding, leaf disk
measure: Concentration required for 50% leaf protection EC50 ±S.E (µg/cm^2)
Provide the reading as a plain figure in µg/cm^2.

(Q) Quick one: give measured Concentration required for 50% leaf protection EC50 ±S.E for CCCCOC(=S)SCSC(=S)OCCCC [Compound 5, Methylene Bis (n-butytxanthate)]
(A) 17.11

(Q) Note Concentration required for 50% leaf protection EC50 ±S.E for the molecule shown: CC(C)COC(=S)SCc1cccc(F)c1 [Compound 3, m-Fluorobenzyl (isobutylxanthate)]
(A) 19.65

(Q) In one line, give reported Concentration required for 50% leaf protection EC50 ±S.E of the entry S=C(OCC1CCCO1)SCSC(=S)OCC1CCCO1 (centres unmarked) .
(A) 37.21

(Q) Return reported Concentration required for 50% leaf protection EC50 ±S.E. Input molecule: CCCCOC(=S)SCc1ccc(CSC(=S)OCCCC)cc1 [Compound 12, p-Xylene Bis (n-butylcanthate)]
(A) 20.45

====

- Test system: late third instar of Spodoptera litura
- experimentalDetails: Antifeedant activity, painted leaf disks of Ricinus cummunis
- Format: in vivo
- conditionContext: 15 µg/sq.cm., 24 hr
Record form. Attribute: Percent leaf consumption 24 hr. Fill in for each entry.
Please reply with the bare figure in % and do not write the unit itself.

(Q) Give reported Percent leaf consumption 24 hr value for CCCCOC(=S)SCc1ccc(CSC(=S)OCCCC)cc1 [Compound 12, p-Xylene Bis (n-butylcanthate)]
(A) 84.3

(Q) Quickly give me recorded Percent leaf consumption 24 hr for CC(C)COC(=S)SCc1cccc(F)c1 [Compound 3, m-Fluorobenzyl (isobutylxanthate)]
(A) 68.7

(Q) Supply Percent leaf consumption 24 hr value. Item: C/C=C(\C)C(=O)O[C@H]1C[C@@H](OC(C)=O)[C@@]2(C(=O)OC)CO[C@H]3[C@@H](O)[C@@](C)([C@]45O[C@@]4(C)[C@H]4C[C@@H]5O[C@@H]5OC=C[C@@]54O)[C@H]4[C@]1(CO[C@]4(O)C(=O)OC)[C@@H]32 [Azadiractin, reference compound]
(A) 27.6

(Q) Give Percent leaf consumption 24 hr for the following molecule: CCCCOC(=S)SCSC(=S)OCCCC [Compound 5, Methylene Bis (n-butytxanthate)]
(A) 60.4

====

- System: late third instar of Spodoptera litura
- experimentalDetails: Antifeedant activity, painted leaf disks of Ricinus cummunis
- Type: in vivo
- Design: key: percent protection of treated vs untreated leaf disks
- conditionContext: 10 µg/sq.cm.
- Source text: The average mortality and growth inhibition data of experiments was subjected to IBM AT 386 computer analysis at our laboratory for calculating LC50, LD50, EC50, ED50,etc., and other statistical data. The software used was developed by Reddy et al., 1992. […]
measure: A.I (Anti-feedent index)

(Q) Give A.I (Anti-feedent index) for the following compound: CCCCOC(=S)SCSC(=S)OCCCC [Compound 5, Methylene Bis (n-butytxanthate)]
(A) 5.50

(Q) Using known records, supply A.I (Anti-feedent index) for C/C=C(\C)C(=O)O[C@H]1C[C@@H](OC(C)=O)[C@@]2(C(=O)OC)CO[C@H]3[C@@H](O)[C@@](C)([C@]45O[C@@]4(C)[C@H]4C[C@@H]5O[C@@H]5OC=C[C@@]54O)[C@H]4[C@]1(CO[C@]4(O)C(=O)OC)[C@@H]32 [Azadiractin, reference compound]
(A) 48.09

(Q) Given the compound CC(C)COC(=S)SCc1cccc(F)c1 [Compound 3, m-Fluorobenzyl (isobutylxanthate)] , write its reported A.I (Anti-feedent index).
(A) 11.63

(Q) Return reported A.I (Anti-feedent index). Input compound: CCCCOC(=S)SCc1ccc(CSC(=S)OCCCC)cc1 [Compound 12, p-Xylene Bis (n-butylcanthate)]
(A) 2.59
